Source listed as patent EP2951180B1.

Reported pIC50 is given for each of the following compounds.
SYSTEM: HDM2 (Homo sapiens, UniProt Q00987)
Construct: Thioredoxin (N); made in house; host or cells: E. coli strain BL21(DE3)Rosetta
Sequence (Q00987 17-125): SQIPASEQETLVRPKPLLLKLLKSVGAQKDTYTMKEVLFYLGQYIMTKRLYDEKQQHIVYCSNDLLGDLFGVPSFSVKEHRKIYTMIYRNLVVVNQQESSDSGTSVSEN
MEASUREMENT_PROTOCOL: HDM2 FRET assay (inhibition of binding of FITC labeled p53-pocket peptide to HDM2)
RECORDED_CONDITIONS: 0.5 nM HDM2 (residues 17 to 125), 3nM peptide, two hour incubation at room temperature; read-out: FRET IC50
pIC50: −log10 of the molar value.
MEASUREMENT_LABEL: pIC50

1) COC[C@@H]1CC[C@@H](COC)N1c1nc2nc(-c3noc(=O)[nH]3)nc(-c3cccc(Cl)c3)c2n1C[C@H]1CC[C@H](C)CC1 [Example 16.149] ... 8.42
2) C[C@H](CO)Nc1nc2nc(-c3noc(=O)[nH]3)nc(-c3cccc(Cl)c3)c2n1C[C@H]1CC[C@H](C)CC1 [Example 16.4] ... 7.53
3) C[C@H]1CC[C@H](Cn2c(N3CCOC[C@H]3c3ccccc3)nc3nc(-c4n[nH]c(=O)o4)nc(-c4cccc(Cl)c4)c32)CC1 [Example 16.21] ... 8.65
4) C[C@H]1CC[C@H](Cn2c(N3CCC4OCCC43)nc3nc(-c4noc(=O)[nH]4)nc(-c4cccc(Cl)c4)c32)CC1 (relative stereo) [Example 16.150] ... 7.35
5) CC(C)c1ccnc(-c2nc3nc(C(=O)O)nc(N[C@H](C)C4CCC4)c3n2C[C@H]2CC[C@H](C)CC2)c1F [Example 15.6] ... 8.22
6) Cc1noc([C@@H]2COCCN2c2nc3nc(-c4n[nH]c(=O)o4)nc(-c4cccc(Cl)c4)c3n2C[C@H]2CC[C@H](C)CC2)n1 [Example 16.121] ... 8.04
7) COC(=O)[C@@H]1COCCN1c1nc2nc(-c3noc(=O)[nH]3)nc(-c3cccc(Cl)c3)c2n1C[C@H]1CC[C@H](C)CC1 [Example 16.48] ... 7.05
8) C[C@@H]1OCCN(c2nc3nc(-c4noc(=O)[nH]4)nc(-c4cccc(Cl)c4)c3n2C[C@H]2CC[C@H](C)CC2)[C@@H]1c1ccccc1 [Example 16.126] ... 7.07
9) Cc1cccc(-c2nc3nc(C(=O)O)nc(N[C@H](C)C4CCC4)c3n2C[C@H]2CC[C@H](C)CC2)c1 [Example 15.14] ... 8.54
10) C[C@H]1CC[C@H](Cn2c(N3CCOCC34CCC4)nc3nc(-c4noc(=O)[nH]4)nc(-c4cncc(Cl)c4)c32)CC1 [Example 16.144] ... 7.72
11) Cc1nc(-c2cccc(-c3nc(-c4noc(=O)[nH]4)nc4nc(N5CCOC[C@H]5c5ccccc5)n(C[C@H]5CC[C@H](C)CC5)c34)c2)no1 [Example 16.112] ... 7.74
12) C[C@H]1CC[C@H](Cn2c(N3CCO[C@@H]4CCC[C@H]43)nc3nc(-c4noc(=O)[nH]4)nc(-c4cncc(Cl)c4)c32)CC1 [Example 16.87] ... 8.81

* * *

SYSTEM: HDM2 (Homo sapiens)
Construct: Thioredoxin (N); made in house; host or cells: E. coli strain BL21(DE3)Rosetta
MEASUREMENT_PROTOCOL: HDM2 FRET assay (inhibition of binding of FITC labeled p53-pocket peptide to HDM2)
RECORDED_CONDITIONS: Table 11; read-out: FRET IC50
MEASUREMENT_LABEL: IC50

1. C[C@@H](Nc1nc(-c2noc(=O)[nH]2)nc2nc(N3CCCC3CC(C)(C)C)n(C[C@H]3CC[C@H](C)CC3)c12)C1CCC1 (stereo partly drawn) ... 6.98 nM
2. C[C@@H](Nc1nc(-c2noc(=O)[nH]2)nc2nc(N3CCC(C)(O)C3)n(C[C@H]3CC[C@H](C)CC3)c12)C1CCC1 (stereo partly drawn) ... 57.7 nM
3. C[C@@H](Nc1nc(-c2noc(=O)[nH]2)nc2nc(N3CCOC4CC43)n(C[C@H]3CC[C@H](C)CC3)c12)C1CCC1 (stereo partly drawn) ... 26.2 nM
4. C[C@@H](Nc1nc(-c2n[nH]c(=O)o2)nc2nc(N3CCOC4CCCCC43)n(C[C@H]3CC[C@H](C)CC3)c12)C1CCC1 (single isomer, unassigned) [Example 11.125] ... 7.49 nM
5. C[C@@H](Nc1nc(C(=O)O)nc2nc(N3CCCCC3c3cccc(F)c3)n(C[C@H]3CC[C@H](C)CC3)c12)C1CCC1 (stereo partly drawn) ... 2.84 nM
6. C[C@@H]1OCCN(c2nc3nc(-c4n[nH]c(=O)o4)nc(N[C@H](C)C4CCC4)c3n2C[C@H]2CC[C@H](C)CC2)[C@H]1C (stereo in doubt) ... 2.16 nM

* * *

SYSTEM: HDM2 (Homo sapiens, UniProt Q00987)
Construct: Thioredoxin (N); made in house; host or cells: E. coli strain BL21(DE3)Rosetta
MEASUREMENT_PROTOCOL: HDM2 FRET assay (inhibition of binding of FITC labeled p53-pocket peptide to HDM2)
RECORDED_CONDITIONS: Table 11; read-out: FRET IC50
pIC50: −log10 of the molar value.
Reported pIC50 is given for each of the following molecules.
MEASUREMENT_LABEL: pIC50

1. C[C@@H]1CCCCN1c1nc2nc(-c3nc(=O)o[nH]3)nc(N[C@H](C)C3CCC3)c2n1C[C@H]1CC[C@H](C)CC1 (single isomer, unassigned) ... 8.27
2. C[C@@H](Nc1nc(C(=O)O)nc2nc(N3CCCCC3c3ccccn3)n(C[C@H]3CC[C@H](C)CC3)c12)C1CCC1 (stereo partly drawn) ... 8.57
3. C[C@@H](Nc1nc(-c2noc(=O)[nH]2)nc2nc(N3CCO[C@H](C)[C@H]3c3ccccc3)n(C[C@H]3CC[C@H](C)CC3)c12)C1CCC1 ... 9.12
4. C[C@@H](Nc1nc(-c2noc(=O)[nH]2)nc2nc(N3CCS(=O)(=O)CC3)n(C[C@H]3CC[C@H](C)CC3)c12)C1CCC1 ... 7.48
5. CC(C)CC1CCCCN1c1nc2nc(C(=O)O)nc(N[C@H](C)C3CCC3)c2n1C[C@H]1CC[C@H](C)CC1 (stereo partly drawn) ... 8.74
6. CC1CS(=O)(=O)CCN1c1nc2nc(-c3noc(=O)[nH]3)nc(N[C@H](C)C3CCC3)c2n1C[C@H]1CC[C@H](C)CC1 (stereo partly drawn) ... 8.02

* * *

SYSTEM: HDM2 (Homo sapiens, UniProt Q00987)
Construct: Thioredoxin (N); made in house; host or cells: E. coli strain BL21(DE3)Rosetta
MEASUREMENT_PROTOCOL: HDM2 FRET assay (inhibition of binding of FITC labeled p53-pocket peptide to HDM2)
RECORDED_CONDITIONS: 0.5 nM HDM2 (residues 17 to 125), 3nM peptide, two hour incubation at room temperature; read-out: FRET IC50
We label by threshold. Values of IC50 strictly beneath 10 nM are yes (1). Values of 10 nM and up are no (0).

1. CC(C)c1ccnc(-c2nc3nc(C(=O)O)nc(OC(C)C4CCC4)c3n2C[C@H]2CC[C@H](C)CC2)c1 (mixture of isomers) ... no (0)
2. CC(C)c1cc(-c2nc3nc(C(=O)O)nc(N[C@H](C)C4CCC4)c3n2C[C@H]2CC[C@H](C)CC2)ncc1F ... yes (1)
3. CC[C@H](Nc1nc2nc(-c3n[nH]c(=O)o3)nc(-c3cccc(Cl)c3)c2n1C[C@H]1CC[C@H](C)CC1)c1ccccc1 ... yes (1)
4. Cc1cccc(-c2nc(-c3noc(=O)[nH]3)nc3nc(N4CCOCC4)n(C[C@H]4CC[C@H](C)CC4)c23)c1 ... no (0)
5. CC(C)[C@@H]1COCCN1c1nc2nc(-c3n[nH]c(=O)o3)nc(-c3cccc(Cl)c3)c2n1C[C@H]1CC[C@H](C)CC1 ... no (0)
6. C[C@H]1CC[C@H](Cn2c(N3CCO[C@H]4CCC[C@@H]43)nc3nc(-c4noc(=O)[nH]4)nc(-c4cccc(Cl)c4)c32)CC1 ... no (0)

* * *

SYSTEM: HDM2 (Homo sapiens, UniProt Q00987)
Construct: Thioredoxin (N); made in house; host or cells: E. coli strain BL21(DE3)Rosetta
MEASUREMENT_PROTOCOL: FRET assay (HDM2 inhibition; method not described in this part)
Assay type: binding
RECORDED_CONDITIONS: Table 1
MEASUREMENT_LABEL: log10(IC50) (log10 of the value in nM)

1) CC(C)Cc1ccnc(-c2nc3nc(C(=O)O)nc(N[C@H](C)C4CCC4)c3n2Cc2ccc(C(F)(F)F)cc2)c1 [Example 1.85] ... 0.99
2) C[C@@H](Nc1nc(C(=O)O)nc2nc(-c3ccc(-c4ccccc4)cc3)n(Cc3ccc(C(F)(F)F)cc3)c12)C1CCC1 [Example 1.109] ... 2.67
3) Cc1ccc(Cl)c(-c2nc3nc(C(=O)O)nc(N[C@H](C)C4CCC4)c3n2Cc2ccc(C(F)(F)F)cc2)c1 [Example 1.120] ... 1.02
4) CC(C)c1ccnc(-c2nc3nc(C(=O)O)nc(N[C@H](C)C4CCC4)c3n2Cc2ccc(OC(F)(F)F)cc2)c1 [Example 1.72] ... 1.09
5) C[C@@H](Nc1nc(C(=O)O)nc2nc(-c3cc(C(O)c4ccccc4)ccn3)n(Cc3ccc(C(F)(F)F)cc3)c12)C1CCC1 (some centres unmarked) [Example 1.8] ... 1.30
6) C[C@@H](Nc1nc(C(=O)O)nc2nc(-c3cc(C4CCCCC4)ccn3)n(Cc3ccc(C(F)(F)F)cc3)c12)C1CCC1 [Example 1.56] ... 0.84
7) C[C@@H](Nc1nc(C(=O)O)nc2nc(-c3ccc4nccnc4c3)n(Cc3ccc(C(F)(F)F)cc3)c12)C1CCC1 [Example 1.106] ... 1.37
8) COc1ccc(C)cc1-c1nc2nc(C(=O)O)nc(N[C@H](C)C3CCC3)c2n1Cc1ccc(C(F)(F)F)cc1 [Example 1.119] ... 1.00
9) C[C@@H](Nc1nc(C(=O)O)nc2nc(-c3ccccc3)n(Cc3ccc(C(F)(F)F)cc3)c12)C1CC1 [Example 1.96] ... 2.57
10) CC(C)c1cc(-c2nc3nc(C(=O)O)nc(N[C@H](C)C4CCC4)c3n2Cc2ccc(C(F)(F)F)cc2)ncc1F [Example 1.10] ... 0.60
11) C[C@@H](Nc1nc(C(=O)O)nc2nc(-c3cc(C(F)(F)F)ccc3F)n(Cc3ccc(C(F)(F)F)cc3)c12)C1CCC1 [Example 1.38] ... 1.44
12) C=C(C)c1cc(C)nc(-c2nc3nc(C(=O)O)nc(N[C@H](C)C4CCC4)c3n2Cc2ccc(C(F)(F)F)cc2)c1 [Example 1.5] ... 1.70
13) C[C@@H](Nc1nc(C(=O)O)nc2nc(-c3ccc(N4CCOCC4)cc3)n(Cc3ccc(C(F)(F)F)cc3)c12)C1CC1 [Example 1.97] ... 3.19
14) Cc1cccnc1-c1nc2nc(C(=O)O)nc(N[C@H](C)C3CCC3)c2n1Cc1ccc(C(F)(F)F)cc1 [Example 1.18] ... 1.66
15) Cc1cnc(-c2nc3nc(C(=O)O)nc(N[C@H](C)C4CCC4)c3n2Cc2ccc(C(F)(F)F)cc2)cc1C(C)C [Example 1.86] ... 1.39
16) CC(C)c1ccc(O)c(-c2nc3nc(C(=O)O)nc(N[C@H](C)C4CCC4)c3n2Cc2ccc(C(F)(F)F)cc2)c1 [Example 1.11] ... 1.70
17) CC(O)c1ccnc(-c2nc3nc(C(=O)O)nc(N[C@H](C)C4CCC4)c3n2Cc2ccc(C(F)(F)F)cc2)c1 (some centres unmarked) [Example 1.28] ... 1.09
18) C[C@@H](Nc1nc(C(=O)O)nc2nc(-c3ccc4c(c3)OCCN4C)n(Cc3ccc(C(F)(F)F)cc3)c12)C1CCC1 [Example 1.125] ... 2.06
19) COCOc1ccc(C(C)C)cc1-c1nc2nc(C(=O)O)nc(N[C@H](C)C3CCC3)c2n1Cc1ccc(C(F)(F)F)cc1 [Example 1.30] ... 1.74
20) CC(C)c1ccc(OC(F)(F)F)c(-c2nc3nc(C(=O)O)nc(N[C@H](C)C4CCC4)c3n2Cc2ccc(C(F)(F)F)cc2)c1 [Example 1.52] ... 0.80
21) C[C@@H](Nc1nc(C(=O)O)nc2nc(-c3cc(OC4CCCCC4)ccn3)n(Cc3ccc(C(F)(F)F)cc3)c12)C1CCC1 [Example 1.58] ... 1.23
22) Cc1c(C(C)C)ccnc1-c1nc2nc(C(=O)O)nc(N[C@H](C)C3CCC3)c2n1Cc1ccc(OC(F)(F)F)c(F)c1 [Example 1.91] ... 1.35
23) CC(C)c1ccc(OC(F)(F)F)c(-c2nc3nc(C(=O)O)nc(N[C@H](C)C4CCC4)c3n2Cc2ccc(C(F)(F)F)c(F)c2)c1 [Example 1.3] ... 1.18
24) COc1cc(C)cc(-c2nc3nc(C(=O)O)nc(N[C@H](C)C4CCC4)c3n2Cc2ccc(C(F)(F)F)cc2)c1 [Example 1.123] ... 1.73
25) CC(C)c1cccc(-c2nc3nc(C(=O)O)nc(N[C@H](C)C4CCC4)c3n2Cc2ccc(C(F)(F)F)cc2)n1 [Example 1.70] ... 1.67
26) C[C@@H](Nc1nc(C(=O)O)nc2nc(-c3ccc(OC(F)F)cc3)n(Cc3ccc(C(F)(F)F)cc3)c12)C1CCC1 [Example 1.100] ... 1.71
